# System: Ramos B-Cell Line Stimulated with IL-4 (JAK-1 and JAK-3 / Stat-6, CD23)
# Test protocol: Assay for Ramos B-Cell Line Stimulated with IL-4 (CD23 upregulation, FACS)
# Format: cell-based
# Reported conditions: Homo sapiens, Ramos, human Ramos B cells, compound 1 hour, IL-4 50 units/mL for 20-24 hours, anti-CD23-PE FACS; read-out: Example 2 (IC50)
# Experimental: One means of assaying for such inhibition is detection of the effect of the 2,4-pyrimidinediamine compounds on the upregulation of downstream gene products. […] 20 to 24 hours post stimulation, cells are stained for upregulation of CD23 and analyzed using flow cytometry (FACS). […]
Assay endpoint: IC50 (nM)

# annotated cases, reported IC50 shown
{"columns": ["Molecule", "Numeric result"],
 "data": [
  ["Cc1nc(COc2ccc(Nc3nc(Nc4ccc(CC#N)cc4)ncc3F)cc2)no1", 247],
  ["CNC(=O)COc1cc(Nc2ncc(F)c(Nc3ccc4c(c3)NC(=O)C(F)(F)O4)n2)ccc1OC", 391],
  ["N#CCOc1ccc(Nc2nc(Nc3ccc(C#N)cc3)ncc2F)cc1", 74.6]
]}

(P) Cc1cnc(Nc2cccc(C#N)c2)nc1Nc1ccc2c(c1)N(C)C(=O)CO2
(Q) N#CCOc1cccc(Nc2nc(Nc3ccc(C(N)=O)cc3)ncc2F)c1
Which gives the smaller IC50 number: P or Q ? State the label of the item chosen.
Q

(a) CC1(C)Oc2ccc(Nc3nc(Nc4ccc5c(c4)C(=O)NCC5)ncc3F)nc2NC1=O
(b) Cc1cc(Nc2nc(Nc3ccc(CC#N)cc3)ncc2F)cc(C)c1OC(C)C#N (stereo not shown)
Short answer wanted: higher IC50, a or b ? State the label of the item chosen.
a
